Test system: Rattus norvegicus
Assay: In vivo inhibition of polyol accumulation in the sciatic nerve of galactosemic rats, activity is expressed as percent inhibition of poloyl accumulation.
Type: functional
Parameters: concentration or dose not given beside the values
Binary call on Inhibition with cut-off 20%: strictly below means YES, and equality or higher means NO.

> print(dat)
                                    molecule  assigned.class
 1  CN1C(=O)Nc2cccc(Cl)c2C12NC(=O)NC2=O (configuration not stated)             YES
 2   CN1C(=O)Nc2ccc(Cl)cc2[C@@]12NC(=O)NC2=O              NO
 3     CN1C(=O)Nc2ccc(F)cc2[C@]12NC(=O)NC2=O             YES
 4  CN1C(=O)Nc2ccc([N+](=O)[O-])c(Cl)c2C12NC(=O)NC2=O (configuration not stated)             YES
 5  NN1C(=O)Nc2ccccc2C12NC(=O)NC2=O (configuration not stated)             YES
 6  Cc1cc2c(cc1Cl)C1(NC(=O)NC1=O)N(C)C(=O)N2 (configuration not stated)              NO
 7  COc1c(Cl)cc2c(c1Cl)NC(=O)N(C)C21NC(=O)NC1=O (configuration not stated)              NO
 8  COc1ccc2c(c1)C1(NC(=O)NC1=O)N(C)C(=O)N2 (configuration not stated)             YES
 9  CN1C(=O)Nc2ccccc2C12NC(=O)NC2=O (configuration not stated)              NO
10  CN1C(=O)Nc2ccc(OC(=O)c3ccccc3)cc2C12NC(=O)NC2=O (configuration not stated)             YES

Field: next molecule
Is it true that Inhibition reported for CC(C)CN1C(=O)N(C)C2(NC(=O)NC2=O)c2ccccc21 (configuration not stated) is less than 20%?
NO
